Data origin, for the record: patent US11608335B2

So I've got a bunch of compounds here, and I need their Fold selectivity for SST5 vs SST4 values.
Biological target: human somatostatin receptor subtype 4 (Homo sapiens)
Construct: expressed in transfected cells
Sequence (P31391 whole entry): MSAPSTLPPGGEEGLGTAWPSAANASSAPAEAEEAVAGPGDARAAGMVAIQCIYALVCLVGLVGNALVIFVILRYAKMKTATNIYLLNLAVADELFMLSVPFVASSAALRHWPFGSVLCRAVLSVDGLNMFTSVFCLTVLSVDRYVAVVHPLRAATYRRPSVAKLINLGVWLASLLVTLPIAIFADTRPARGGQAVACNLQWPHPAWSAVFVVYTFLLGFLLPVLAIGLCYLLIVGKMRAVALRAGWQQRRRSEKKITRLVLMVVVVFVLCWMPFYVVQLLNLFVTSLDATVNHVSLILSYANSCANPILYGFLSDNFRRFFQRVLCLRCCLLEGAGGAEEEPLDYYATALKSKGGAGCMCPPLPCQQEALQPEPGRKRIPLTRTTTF
Test: cAMP assay for hSST4R (inhibition of cAMP via human SST4 receptor)
Format: cell-based
Details: from inhibition of cAMP via human SST5 receptor and human SST4 receptor
Give the number; fold is assumed, so skip it.

The compound listed as `Cc1cc(F)cc(-c2cncc(-c3nc4cccc(C)c4[nH]3)c2N2CC[C@H](N)C2)c1` shows Fold selectivity for SST5 vs SST4 equal to 0.94

The compound listed as `Cc1cccc2nc(-c3cncc(-c4cc(F)cc(Cl)c4)c3N3CC[C@H](N)C3)[nH]c12` shows Fold selectivity for SST5 vs SST4 equal to 4.0

The compound listed as `Cc1cccc2nc(-c3cncc(-c4cc(F)cc(C(F)(F)F)c4)c3N3CC[C@H](N)C3)[nH]c12` shows Fold selectivity for SST5 vs SST4 equal to 1.2

The compound listed as `C[C@]1(N)CCN(c2c(-c3cccc(C#N)c3)cncc2-c2nc3c(F)cccc3[nH]2)C1` shows Fold selectivity for SST5 vs SST4 equal to 136

The compound listed as `COc1cc(F)cc(-c2cncc(-c3nc4c(C)cccc4[nH]3)c2N2CC[C@H](N)C2)c1` shows Fold selectivity for SST5 vs SST4 equal to 1.4

The compound listed as `Cc1cccc2nc(-c3cncc(-c4ccnc(C#N)c4)c3N3CC[C@](C)(N)C3)[nH]c12` shows Fold selectivity for SST5 vs SST4 equal to 63

The compound listed as `Cc1ccc(F)c2[nH]c(-c3cncc(-c4cc(F)cc(C#N)c4)c3N3CC[C@H](N)C3)nc12` shows Fold selectivity for SST5 vs SST4 equal to 18

The compound listed as `Cc1ccnc2[nH]c(-c3cncc(-c4cc(F)c(F)c(C#N)c4)c3N3CC[C@](C)(N)C3)nc12` shows Fold selectivity for SST5 vs SST4 equal to 56

The compound listed as `NCC1CN(c2c(-c3ccc4ccccc4c3)cncc2-c2nc3cc(F)cc(F)c3[nH]2)C1` shows Fold selectivity for SST5 vs SST4 equal to 8.8

The compound listed as CCC(N)C1CN(c2c(-c3cc(C)cc(F)c3)cncc2-c2nc3cc(F)cc(F)c3[nH]2)C1 (stereo not drawn) shows Fold selectivity for SST5 vs SST4 equal to 812

The compound listed as `Cc1cccc2nc(-c3cncc(-c4cc(F)cc(F)c4)c3N3CC[C@H](N)C3)[nH]c12` shows Fold selectivity for SST5 vs SST4 equal to 1.0

The compound listed as `C[C@]1(N)CCN(c2c(-c3ccc(F)c(C#N)c3)cncc2-c2nc3cccc(C#N)c3[nH]2)C1` shows Fold selectivity for SST5 vs SST4 equal to 18

----------
Biological target: human somatostatin receptor subtype 5 (Homo sapiens)
Experiment: cAMP assay for SST5R (inhibition of cAMP via human SST5 receptor)
OBSERVED_PROPERTY: EC50

The molecule listed as `N#Cc1cc(F)cc(-c2cncc(-c3nc4cccc(F)c4[nH]3)c2N2C[C@@H](N)C[C@@H]2CO)c1` shows EC50 equal to 100 to 1000 nM

The molecule listed as `Cc1cc(F)cc(-c2cncc(-c3nc4cc(F)c(F)cc4[nH]3)c2N2CC(CN)C2)c1` shows EC50 equal to 10 to 100 nM

The molecule listed as N#Cc1cccc(-c2cncc(-c3nc4c(F)cccc4[nH]3)c2N2C[C@@H](N)[C@H](O)C2)c1 (racemic) shows EC50 equal to 10 to 100 nM

The molecule listed as `Cc1cc(-c2cncc(-c3nc4nccc(C)c4[nH]3)c2N2CC[C@](C)(N)C2)ccc1F` shows EC50 equal to < 10 nM

The molecule listed as CC1(N)CCN(c2c(-c3cccc(-n4cccn4)c3)cncc2-c2nc3cccc(F)c3[nH]2)C1 (stereo not shown) shows EC50 equal to 10 to 100 nM

The molecule listed as `Cc1cc(F)cc(-c2cncc(-c3nc4cc(F)c(Cl)cc4[nH]3)c2N2CC(CN)C2)c1` shows EC50 equal to 10 to 100 nM

The molecule listed as `Cc1cc(F)cc2nc(-c3cncc(-c4cc(F)cc(C#N)c4)c3N3CC[C@H](N)C3)[nH]c12` shows EC50 equal to < 10 nM

----------
Target: human somatostatin receptor subtype 5 (Homo sapiens)
Assay: cAMP assay for SST5R (inhibition of cAMP via human SST5 receptor)
pEC50: −log10 of the molar value.
So I've got a bunch of compounds here, and I need their pEC50 values.

The compound listed as CC1(N)CCN(c2c(-c3cc(F)cc(C#N)c3)cncc2-c2nc3cccc(F)c3[nH]2)C1 (stereo not shown) [Compound 2-6] shows pEC50 equal to > 8.00

The compound listed as CC(N)C1(C)CN(c2c(-c3cccc(F)c3)cncc2-c2nc3cc(F)cc(F)c3[nH]2)C1 (stereo not shown) [Compound 1-68] shows pEC50 equal to > 8.00

The compound listed as CC1(N)CCN(c2c(-c3cccc(Cl)c3)cncc2-c2nc3cccc(F)c3[nH]2)C1 (stereo not shown) [Compound 2-28] shows pEC50 equal to > 8.00

The compound listed as C[C@]1(N)CCN(c2c(-c3ccc(F)c(C#N)c3)cncc2-c2nc3c(C#N)ccnc3[nH]2)C1 [Compound 2-176] shows pEC50 equal to > 8.00

The compound listed as N#Cc1cccc(-c2cncc(-c3nc4c(F)c(F)c(F)c(F)c4[nH]3)c2N2CC[C@H](N)C2)c1 [Compound 2-41] shows pEC50 equal to 7.00 to 8.00

The compound listed as CON=Cc1cc(F)cc(-c2cncc(-c3nc4c(F)cccc4[nH]3)c2N2CC[C@H](N)C2)c1 [Compound 2-9] shows pEC50 equal to 7.00 to 8.00

The compound listed as N#Cc1cccc(-c2cncc(-c3nc4c(C(N)=O)cccc4[nH]3)c2N2CC[C@H](N)C2)c1 [Compound 2-83] shows pEC50 equal to 6.00 to 7.00

----------
Biological target: human somatostatin receptor subtype 5 (Homo sapiens, UniProt P35346)
Sequence (P35346 whole entry): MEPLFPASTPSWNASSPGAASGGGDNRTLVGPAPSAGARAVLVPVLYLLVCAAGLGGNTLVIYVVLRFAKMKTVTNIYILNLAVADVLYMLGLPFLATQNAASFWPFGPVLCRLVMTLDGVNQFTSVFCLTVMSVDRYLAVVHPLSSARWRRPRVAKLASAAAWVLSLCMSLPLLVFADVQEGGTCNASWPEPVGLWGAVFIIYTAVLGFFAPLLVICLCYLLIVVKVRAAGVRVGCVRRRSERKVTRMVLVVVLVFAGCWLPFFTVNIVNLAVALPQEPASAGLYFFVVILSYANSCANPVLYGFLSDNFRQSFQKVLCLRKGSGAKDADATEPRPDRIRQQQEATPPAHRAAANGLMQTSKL
Assay: cAMP assay for SST5R (inhibition of cAMP via human SST5 receptor)
Conditions: SST5 over SST2, class symbols
OBSERVED_PROPERTY: Fold selectivity for SST5 vs SST2

Field: example entries. Status: answers known.
[[record]]
compound = "Cc1cc(F)cc(-c2cncc(-c3nc4ccc(Cl)cc4[nH]3)c2N2CC[C@H](N)C2)c1"
val = "+ (+=10 to 99)"

[[record]]
compound = "Cc1cc(F)cc(-c2cncc(-c3nc4c(F)ccc(F)c4[nH]3)c2N2CC(CN)C2)c1"
val = "+++ (+++=≥500)"

[[record]]
compound = "Cc1ccnc2nc(-c3cncc(-c4ccc(F)c(F)c4)c3N3CC[C@](C)(N)C3)[nH]c12"
val = "+ (+=10 to 99)"

[[record]]
compound = "C[C@]1(N)CCN(c2c(-c3ccc(F)c(C#N)c3)cncc2-c2nc3cccc(C#N)c3[nH]2)C1"
val = "+++ (+++=≥500)"

[[record]]
compound = "CC(N)C1CN(c2c(-c3ccc(F)c(C#N)c3)cncc2-c2nc3cc(F)cc(F)c3[nH]2)C1 (stereo not shown)"
val = "+++ (+++=≥500)"


Entry CC(N)C1(C)CN(c2c(-c3cccc(C#N)c3)cncc2-c2nc3cc(F)cc(F)c3[nH]2)C1 (stereo not shown) ; assay system human somatostatin receptor subtype 5 (Homo sapiens, UniProt P35346); Fold selectivity for SST5 vs SST2 recorded at +++ (+++=≥500)

----------
Biological target: human somatostatin receptor subtype 2 (Homo sapiens)
Sequence (P30874 whole entry): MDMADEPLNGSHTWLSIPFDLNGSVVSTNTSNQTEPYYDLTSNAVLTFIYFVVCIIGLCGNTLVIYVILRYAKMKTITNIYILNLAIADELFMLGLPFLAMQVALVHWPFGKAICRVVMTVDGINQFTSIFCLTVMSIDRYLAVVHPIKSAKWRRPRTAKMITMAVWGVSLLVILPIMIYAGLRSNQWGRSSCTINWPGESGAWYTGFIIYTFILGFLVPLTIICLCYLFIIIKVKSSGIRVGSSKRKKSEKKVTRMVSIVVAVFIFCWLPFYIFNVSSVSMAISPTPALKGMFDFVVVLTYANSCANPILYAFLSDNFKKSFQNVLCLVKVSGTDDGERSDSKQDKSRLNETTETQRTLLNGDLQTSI
Assay: cAMP assay for SST2R (inhibition of cAMP via human SST2 receptor)
Conditions: Table B, read-out: SST2 potency
pEC50: −log10 of the molar value.
So I've got a bunch of compounds here, and I need their pEC50 values.

The compound listed as Cc1cccc2nc(-c3cncc(-c4cc(F)cc(Cl)c4)c3N3CC[C@H](N)C3)[nH]c12 [Compound 2-183] shows pEC50 equal to 6.00 to 7.00

The compound listed as N#Cc1cc(-c2cncc(-c3nc4ccc(F)c(F)c4[nH]3)c2N2CC[C@H](N)C2)ccc1F [Compound 2-52] shows pEC50 equal to 6.00 to 7.00

The compound listed as Cc1ccnc2nc(-c3cncc(-c4ccc(F)c(F)c4)c3N3CC[C@](C)(N)C3)[nH]c12 [Compound 2-190] shows pEC50 equal to 7.00 to 8.00

The compound listed as N#Cc1cc(-c2cncc(-c3nc4c(F)ccc(F)c4[nH]3)c2N2CC[C@H](N)C2)ccc1F [Compound 2-44] shows pEC50 equal to 6.00 to 7.00

The compound listed as CC(N)C1(C)CN(c2c(-c3cccc(C(F)(F)F)c3)cncc2-c2nc3cc(F)cc(F)c3[nH]2)C1 (stereo not shown) [Compound 1-69] shows pEC50 equal to < 6.00

The compound listed as Cc1ccc(F)c2[nH]c(-c3cncc(-c4ccnc(C#N)c4)c3N3CC[C@H](N)C3)nc12 [Compound 2-106] shows pEC50 equal to 6.00 to 7.00

The compound listed as CCC(N)C1CN(c2c(-c3cc(C)cc(F)c3)cncc2-c2nc3cc(F)cc(F)c3[nH]2)C1 (stereo not shown) [Compound 1-51] shows pEC50 equal to < 6.00
